# Procedure text: In vitro stability in human plasma (HPLC detection)
# Format: in vitro ADME
# Condition context: 37° C., read-out: half-life of degradation with release of the active ingredient compound (A)
Attribute measured: half-life at 0.25 mg/mL

### Prompt Dear colleague, I am looking for the recorded half-life at 0.25 mg/mL of the following compound: `CCCCNCCCC(=O)N(C[C@H]1CN(c2ccc(N3CCOCC3=O)cc2F)C(=O)O1)C(=O)c1ccc(Cl)s1`
### Response < 2 min
